Where do these numbers come from? They come from ChEMBL document CHEMBL2384920.

Tested on: Vaccinia virus
Assay: Antiviral activity against Vaccinia virus infected in human HEL cells assessed as reduction of virus-induced cytopathicity measured at day 3 by microscopic analysis
Type: functional, organism-based
Conditions: Orthopoxvirus vaccinia, 72 h
Assay readout: EC50 (µM)
Write the value in µM as a bare number.

Smiles text | Unit tag | Endpoint result
CC(C)(C)C(=O)OCOP(=O)(COCCn1cnc2c(N)ncnc21)OCOC(=O)C(C)(C)C | µM | 4

EC50 of CC(C)(C)C(=O)OCOP(=S)(COCCn1cnc2c(N)ncnc21)OCOC(=O)C(C)(C)C on Vaccinia virus?
29

* * *

The following molecules are shown together with reported EC50 values.
Tested on: Hepatitis B virus
Assay: Antiviral activity against wild type HBV transfected in human HuH7 cells assessed as reduction of viral DNA level after 7 days by qPCR analysis
Type: functional, organism-based
Conditions: Huh-7, 168 h

Here is how some molecules turned out for EC50.
Smiles text | EC50
CC(C)OC(=O)OCOP(=O)(CO[C@H](C)Cn1cnc2c(N)ncnc21)OCOC(=O)OC(C)C | 880 nM
CC(C)(C)C(=O)OCOP(=S)(COCCn1cnc2c(N)ncnc21)OCOC(=O)C(C)(C)C | 1450 nM
CC(C)(C)C(=O)OCOP(=O)(COCCn1cnc2c(N)ncnc21)OCOC(=O)C(C)(C)C | 830 nM

Next item in the queue.
# input molecule: CC(C)OC(=O)OCOP(=S)(CO[C@H](C)Cn1cnc2c(N)ncnc21)OCOC(=O)OC(C)C ; wanted: its EC50
1140 nM

* * *

The following compounds are shown together with reported half-life values.
Experiment: Stability of the compound in RPMI-1640 assessed as half life of first step of hydrolysis
Assay type: physicochemical
Write the value in h as a bare number.

# input compound: CC(C)(C)C(=O)OCOP(=O)(COCCn1cnc2c(N)ncnc21)OCOC(=O)C(C)(C)C ; wanted: its half-life
1

# input compound: CC(C)OC(=O)OCOP(=O)(CO[C@H](C)Cn1cnc2c(N)ncnc21)OCOC(=O)OC(C)C ; wanted: its half-life
1

* * *

Experiment: Cytotoxicity against human HEL cells assessed as effect on cell morphology
Type: cell-based
The following molecules are shown together with reported MCC values.

Smiles text | MCC
CC(C)(C)C(=O)OCOP(=S)(COCCn1cnc2c(N)ncnc21)OCOC(=O)C(C)(C)C | > 50 µM

# input molecule: CC(C)OC(=O)OCOP(=S)(CO[C@H](C)Cn1cnc2c(N)ncnc21)OCOC(=O)OC(C)C ; wanted: its MCC
> 50 µM

# input molecule: CC(C)(C)C(=O)OCOP(=O)(COCCn1cnc2c(N)ncnc21)OCOC(=O)C(C)(C)C ; wanted: its MCC
> 50 µM

# input molecule: Nc1ccn(C[C@@H](CO)OCP(=O)(O)O)c(=O)n1 ; wanted: its MCC
> 250 µM

# input molecule: CC(C)OC(=O)OCOP(=O)(CO[C@H](C)Cn1cnc2c(N)ncnc21)OCOC(=O)OC(C)C ; wanted: its MCC
> 50 µM

# input molecule: Nc1nc2c(ncn2COCCO)c(=O)[nH]1 ; wanted: its MCC
> 250 µM

* * *

The following molecules are shown together with reported pEC50 values.
Test system: Human alphaherpesvirus 2
Experiment: Antiviral activity against Human simplex virus 2 G infected in human HEL cells assessed as reduction of virus-induced cytopathicity measured at day 3 by microscopic analysis
Format: functional, organism-based
Conditions: Human alphaherpesvirus 2, strain G, 72 h
In textbook form, pEC50 equals minus log to base ten of the concentration in mol/L.

Here is how some molecules turned out for pEC50.
Smiles text | Assay readout | Endpoint result
CC(C)OC(=O)OCOP(=O)(CO[C@H](C)Cn1cnc2c(N)ncnc21)OCOC(=O)OC(C)C | pEC50 | 5.24
CC(C)(C)C(=O)OCOP(=S)(COCCn1cnc2c(N)ncnc21)OCOC(=O)C(C)(C)C | pEC50 | 5.41

Next item in the queue.
# input molecule: CC(C)(C)C(=O)OCOP(=O)(COCCn1cnc2c(N)ncnc21)OCOC(=O)C(C)(C)C ; wanted: its pEC50
6.70
